Reported log10 of IC50 by item:
target: AM2 receptor (1321N1 cells transfected with CALCRL+RAMP3) (Homo sapiens, UniProt O60896+Q16602); construct: host or cells: 1321N1 cells; experiment: AM2 receptor inhibition, LANCE cAMP agonist-antagonist competition assay; assay type: cell-based; conditions: inhibition of AM induced cAMP activation, read-out: AM2 D2 protocol: pIC50 (converted)
Sequence (Q16602 23-461): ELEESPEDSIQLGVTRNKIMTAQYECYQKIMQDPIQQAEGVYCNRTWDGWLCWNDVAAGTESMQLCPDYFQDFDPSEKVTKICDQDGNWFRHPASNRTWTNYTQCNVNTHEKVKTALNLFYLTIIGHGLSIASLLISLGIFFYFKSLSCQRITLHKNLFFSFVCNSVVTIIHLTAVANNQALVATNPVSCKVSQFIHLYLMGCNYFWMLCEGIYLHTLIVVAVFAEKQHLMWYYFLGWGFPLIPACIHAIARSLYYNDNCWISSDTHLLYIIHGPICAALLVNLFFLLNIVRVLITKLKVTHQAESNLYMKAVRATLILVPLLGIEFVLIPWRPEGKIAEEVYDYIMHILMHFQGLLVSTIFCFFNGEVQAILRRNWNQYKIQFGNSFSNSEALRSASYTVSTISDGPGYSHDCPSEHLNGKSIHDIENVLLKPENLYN
Sequence (O60896 24-148): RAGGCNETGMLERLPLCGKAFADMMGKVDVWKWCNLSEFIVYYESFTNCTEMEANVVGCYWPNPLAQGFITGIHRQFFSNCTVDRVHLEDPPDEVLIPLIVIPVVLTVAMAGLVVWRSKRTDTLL
Could you please treat all values as log10 of IC50 in nM?

# count of solved cases: 2
CCC1(C(=O)N(CC(=O)Nc2ccc3c(c2)C[C@@]2(C3)C(=O)Nc3ncccc32)Cc2ccccc2CNC)CCN(C(=O)[C@@H](N)c2ccccc2)CC1: 0.87
CNCc1ccccc1CN(CC(=O)Nc1ccc2c(c1)C[C@@]1(C2)C(=O)Nc2ncccc21)C(=O)C1(C)CCN(c2cccnn2)CC1: 1.69

Recorded result, CCC1(C(=O)N(CC(=O)Nc2ccc3c(c2)C[C@@]2(C3)C(=O)Nc3ncccc32)Cc2ccccc2CNC)CCN(C(=O)C2CC2)CC1 , log10 of IC50: 0.94

Recorded result, CNCc1ccccc1CN(CC(=O)Nc1ccc2c(c1)C[C@@]1(C2)C(=O)Nc2ncccc21)C(=O)C1(CC(F)(F)F)CCN(C(=O)N(C)C)CC1 , log10 of IC50: 1.02

Recorded result, CNCc1ccccc1CN(CC(=O)Nc1ccc2c(c1)CC1(C2)C(=O)Nc2ncccc21)C(=O)C1(C)CCN(C(=O)CN2CCNCC2)CC1 (stereo not drawn) , log10 of IC50: -0.23

Recorded result, CNCc1ccccc1CN(CC(=O)Nc1ccc2c(c1)C[C@@]1(C2)C(=O)Nc2ncccc21)C(=O)C1(C)CCN(Cc2ccncc2)CC1 , log10 of IC50: 0.34

Recorded result, CNCc1ccccc1CN(CC(=O)Nc1ccc2c(c1)CC1(C2)C(=O)Nc2ncccc21)C(=O)C1(C)CCN(C(=O)c2ccccc2)CC1 (stereo not drawn) , log10 of IC50: 0.34

Recorded result, CCC1(C(=O)N(CC(=O)Nc2ccc3c(c2)C[C@@]2(C3)C(=O)Nc3ncccc32)Cc2ccccc2CNC)CCN(C(=O)NC23CC(C2)C3)CC1 , log10 of IC50: 1.70

Recorded result, CCC1(C(=O)N(CC(=O)Nc2ccc3c(c2)C[C@@]2(C3)C(=O)Nc3ncccc32)Cc2ccccc2CNC)CCN(C(=O)N2CCCC2)CC1 , log10 of IC50: 0.84

====

target: AM2 receptor (1321N1 cells transfected with CALCRL+RAMP3) (Homo sapiens, UniProt O60896+Q16602); construct: host or cells: 1321N1 cells; assay: AM2 receptor inhibition, LANCE cAMP agonist-antagonist competition assay; assay type: cell-based; details: inhibition of AM induced cAMP activation, read-out: AM2 D2 protocol: pIC50 (converted)
measurement.kind: IC50 (nM)
Report as a plain number; the unit nM is understood.

CCC1(C(=O)N(CC(=O)Nc2ccc3c(c2)C[C@@]2(C3)C(=O)Nc3ncccc32)Cc2ccccc2CNC)CCN(C(=O)OC(C)C)CC1: 69.2

Recorded result, CNCc1ccccc1CN(CC(=O)Nc1ccc2c(c1)C[C@@]1(C2)C(=O)Nc2ncccc21)C(=O)C1(CC(F)(F)F)CCN(C(C)=O)CC1 , IC50: 22.9

====

target: AM2 receptor (1321N1 cells transfected with CALCRL+RAMP3) (Homo sapiens, UniProt O60896+Q16602); construct: host or cells: 1321N1 cells; test: AM2 receptor inhibition, LANCE cAMP agonist-antagonist competition assay; format: cell-based; conditions: inhibition of AM induced cAMP activation, read-out: AM2 D2 protocol: pIC50 (converted)
measurement.kind: IC50 (nM)
Report as a plain number; the unit nM is understood.

CNCc1ccccc1CN(CC(=O)Nc1ccc2c(c1)C[C@@]1(C2)C(=O)Nc2ncccc21)C(=O)C1(C)CC2CCC(C1)N2C(C)=O (stereo partly drawn): 2.24

Recorded result, CNCc1ccccc1CN(CC(=O)Nc1ccc2c(c1)CC1(C2)C(=O)Nc2ncccc21)C(=O)C1(C)CCN(C(=O)N2CCCC2)CC1 (stereo not drawn) , IC50: 2.34

Recorded result, CCC1(C(=O)N(CC(=O)Nc2ccc3c(c2)C[C@@]2(C3)C(=O)Nc3ncccc32)Cc2ccccc2CNC)CCN(C(=O)c2ccc(F)cn2)CC1 , IC50: 37.2
